# measurement-target: T1, recombinant human BAFF-Fc (Sino Biological) (human, UniProt Q9Y275 134-285)
# T1 construct: Bought reagent; also called hBAFF; not shown: Fc moiety detected by anti-human Fc
# T1 sequence (Q9Y275 134-285): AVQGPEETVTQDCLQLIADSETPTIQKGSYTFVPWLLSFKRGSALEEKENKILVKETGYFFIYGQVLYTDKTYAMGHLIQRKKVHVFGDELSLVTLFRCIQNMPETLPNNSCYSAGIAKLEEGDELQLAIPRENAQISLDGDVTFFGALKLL
# test-protocol: blocking ELISA, VNAR diluted with 1.14 nM BAFF-Fc; binding of BAFF-Fc to coated BAFF-R extracellular domain
pIC50: −log10 of the molar value.
Here, each record is paired with measured pIC50 data.
attribute-measured: pIC50

ID2-101A03 (VNAR, Nurse shark VNAR single domain, monomer) VNAR: AARVDQTPQTITKETGESLTINCVLRDNNCALSTTYWYRKKSGSTNEENISKGGRYVETVNSGSKSFSLKINDLTVEDSGTYRCKVRVDRLLCGWRVGRRQLGDVYGGGTVVTVNA ... 7.91
ID2-101B10 (VNAR, Nurse shark VNAR single domain, monomer) VNAR: AARVDQTPQTITKETGESLTINCVLRDSNCALSSTYWYRKKSGSTNEESISKGGRYVETVNSGSKSFSLRINDLTVEDSGTYRCKVRIDPLLCNASYVKWDDVYGGGTVVTVNA ... 8.55
ID2-101A07 (VNAR, Nurse shark VNAR single domain, tested as monomer) VNAR: AARVDQTPQTITKETGESLTINCVLRDSNCALSNLYWYRKKSGSTNEESISLGGRYVETVNSGSKSFSLRINDLTVEDSGTYRCKVQLPYDPLTKECILGRMDVYGDGTAVTVNA ... 8.17
ID2-101A09 (VNAR, Nurse shark VNAR single domain, monomer) VNAR: AARVDQTPQTITKETGESLTINCVLRDNNCALSTTYWYRKKSGSTNEESISKGGRYVETVNSGSKSFSLRINDLTVEDSGTYRCKVREDPLMCRYYLDRYRDVYGGGTVVTVNA ... 8.01
